Each recorded value in this set is attributed to patent US8551984B2.

molecular target: UniProt:P43405; assay: biochemical
Property: IC50; scope: individual molecules

molecule	result
Cc1cc(Nc2nccc(C(F)(F)F)n2)cc(-c2cnc(C3(O)CCC(C(=O)NCC(O)CO)CC3)s2)c1 (stereo not drawn)	< 100 nM

stdin: Field request: IC50 | item: "Cc1cc(Nc2nccc(C(F)(F)F)n2)cc(-c2cnc([C@]3(O)CC[C@@H](C(=O)NCc4ccc(Cl)cc4)CC3)s2)c1"
stdout: < 100 nM

stdin: One more molecule: Cc1cc(Nc2nccc(C(F)(F)F)n2)cc(-c2cnc(C3(O)CCC(C(=O)NC4CCC(C(=O)O)CC4)CC3)s2)c1 (stereo not drawn)
stdout: < 100 nM

====

target: recombinant human SYK (GST-hSYK fusion protein) (Homo sapiens, UniProt P43405); assay: biochemical; conditions: rhSYK Activity, Table 54B
pIC50: −log10 of the molar value.
Some compounds, each annotated with its measured pIC50.

Use these answered entries as a reference point.
compound	pIC50
COc1ccnc(Nc2cc(C)cc(-c3cnc(C4(O)CCN(C(N)=O)C4)s3)c2)n1 (stereo not shown) [54B-10]	> 7.00
Cc1cc(Nc2nccc(C(F)(F)F)n2)cc(-c2cnc(C3(O)CCN(C4CCC(C(=O)O)C4)C3)s2)c1 (stereo not shown) [54B-32]	> 7.00
Cc1cc(Nc2nccc(C(F)(F)F)n2)cc(-c2cnc(C3(O)CCN(C(=O)C(N)=O)C3)s2)c1 (stereo not shown) [54B-23]	> 7.00
Cc1cc(Nc2nccc(C)n2)cc(-c2cnc(C3(O)CCN(C(N)=O)C3)s2)c1 (stereo not shown) [54B-13]	> 7.00
Cc1cc(Nc2nccc(C(F)(F)F)n2)cc(-c2cnc(C3(O)CCNC3)s2)c1 (stereo not shown) [54B-5]	> 7.00
COC(=O)c1cccc(N2CCC(O)(c3ncc(-c4cc(C)cc(Nc5nccc(C(F)(F)F)n5)c4)s3)C2)c1 (stereo not shown) [54B-35]	6.00 to 7.00

stdin: Fill in: pIC50 of Cc1cc(Nc2nccc(C(F)(F)F)n2)cc(-c2cnc(C3(O)CCN(C(N)=O)C3)s2)c1 (stereo not shown) [54B-2] is ___
stdout: > 7.00

stdin: And Cc1cc(Nc2nccc(C(F)(F)F)n2)cc(-c2cnc(C3(O)CCN(C(=O)C(=O)O)C3)s2)c1 (stereo not shown) [54B-25] ?
stdout: > 7.00

stdin: Item: Cc1cc(Nc2nccc(C(F)(F)F)n2)cc(-c2cnc(C3(O)CC(C(=O)O)N(C(N)=O)C3)s2)c1 (stereo not shown) [54B-36]
stdout: > 7.00

stdin: Would you kindly repeat that for COC(=O)C1CC(O)(c2ncc(-c3cc(C)cc(Nc4nccc(C(F)(F)F)n4)c3)s2)CN1C(N)=O (stereo not shown) [54B-37] ?
stdout: > 7.00

stdin: Another: Cc1cc(Nc2nccc(C(F)(F)F)n2)cc(-c2cnc(C3(O)CCN(C(=O)CO)C3)s2)c1 (stereo not shown) [54B-21]
stdout: > 7.00

stdin: Now try Cc1cc(Nc2nccc(C(F)(F)F)n2)cc(-c2cnc(C3(O)CCN(CC(N)=O)C3)s2)c1 (stereo not shown) [54B-20] .
stdout: > 7.00

stdin: // next record Cc1cc(Nc2nccc(C(F)(F)F)n2)cc(-c2cnc(C3(O)CCN(C(=O)OC(C)(C)C)C3)s2)c1 (stereo not shown) [54B-4]
stdout: 6.00 to 7.00

stdin: Entry to check: COC(=O)C1CCC(N2CCC(O)(c3ncc(-c4cc(C)cc(Nc5nccc(C(F)(F)F)n5)c4)s3)C2)C1 (stereo not shown) [54B-34]
stdout: > 7.00

stdin: What would you report for Cc1cc(Nc2nccc(C(F)(F)F)n2)cc(-c2cnc(C3(O)CCN(S(=O)(=O)NC(=O)OC(C)(C)C)C3)s2)c1 (stereo not shown) [54B-9] ?
stdout: > 7.00

stdin: Okay, and COC(=O)CN1CCC(O)(c2ncc(-c3cc(C)cc(Nc4nccc(C(F)(F)F)n4)c3)s2)C1 (stereo not shown) [54B-24] ?
stdout: > 7.00

====

molecular target: recombinant human SYK (GST-hSYK fusion protein) (Homo sapiens, UniProt P43405); settings: read-out: rhSYK Activity; Table 113D, upper part
measured-metric: IC50

stdin: GET /values?readout=IC50&item= Cc1cc(Nc2nccc(C(F)(F)F)n2)cc(-c2cnc(C(C)(O)c3ccc(C(=O)O)cn3)s2)c1 (stereo not shown) [Example 113D-6]
stdout: < 100 nM

====

target: recombinant human SYK (GST-hSYK fusion protein) (Homo sapiens); conditions: read-out: rhS YK Activity; Table 113C
measured-metric: IC50

stdin: Find the measured IC50: item Cc1cc(Nc2nccc(C(C)C)n2)cc(-c2cnc(C3(O)CCCNCC3)s2)c1 (stereo not shown) [113C-14] , target or system recombinant human SYK (GST-hSYK fusion protein) (Homo sapiens).
stdout: < 100 nM

====

Recorded measurements of pIC50, one per entry
biological target: recombinant human SYK (GST-hSYK fusion protein) (Homo sapiens, UniProt P43405); assay: biochemical; conditions: rhSYK Activity (IC50), recombinant human GST-SYK 5 pM, ATP 25 μM, biotinylated substrate peptide 250 nM, HTRF, 10-dose titration
pIC50: −log10 of the molar value.

Solved cases below.
compound	tgt	pIC50
COC(=O)[C@H]1CC[C@](O)(c2ncc(-c3cc(C)cc(Nc4ncc5c(n4)CCC5)c3)s2)CC1(C)C [Example 100A-29]	recombinant human SYK (GST-hSYK fusion protein) (Homo sapiens, UniProt P43405)	6.00 to 7.00
CCOP(=O)(OCC)[C@]1(O)CC[C@@](O)(c2ncc(-c3cc(C)cc(Nc4nccc(C(F)(F)F)n4)c3)s2)CC1	recombinant human SYK (GST-hSYK fusion protein) (Homo sapiens, UniProt P43405)	> 7.00
Cc1cc(Nc2nccc(C(F)(F)F)n2)cc(-c2cnc(CNCC(O)C(F)F)s2)c1 (stereo not drawn) [Example 88A-2]	recombinant human SYK (GST-hSYK fusion protein) (Homo sapiens, UniProt P43405)	> 7.00
COC(=O)[C@H]1CC[C@](O)(c2ncc(-c3cc(C)cc(Nc4nccc(C5CCC5)n4)c3)s2)CC1(C)C	recombinant human SYK (GST-hSYK fusion protein) (Homo sapiens, UniProt P43405)	> 7.00
Cc1cc(Nc2nccc(C3CC3)n2)cc(-c2cnc([C@]3(O)CC[C@@H](C(=O)O)CC3)s2)c1	recombinant human SYK (GST-hSYK fusion protein) (Homo sapiens, UniProt P43405)	> 7.00
COC(=O)[C@H]1CC[C@](O)(c2ncc(-c3cc(C)cc(Nc4nccc(OC(C)C)n4)c3)s2)CC1(C)C	recombinant human SYK (GST-hSYK fusion protein) (Homo sapiens, UniProt P43405)	> 7.00

Now look at this entry.
stdin: Query: pIC50; subject: Cc1cc(Nc2nccc(C(F)(F)F)n2)cc(-c2cnc(CNC(C)(C)CC(C)O)s2)c1 (stereo not drawn) [Example 88A-45]
stdout: > 7.00

====

target: recombinant human SYK (GST-hSYK fusion protein) (Homo sapiens); assay: biochemical; conditions: hSYK Activity, table of Example 23-1
measured-metric: IC50

stdin: What IC50 appears in the records for this compound with recombinant human SYK (GST-hSYK fusion protein) (Homo sapiens)? NC(=O)[C@H]1CC[C@H](c2ncc(-c3cccc(Nc4nccc(C(F)(F)F)n4)c3)s2)CC1 [23-1]
stdout: < 100 nM

====

biological target: recombinant human SYK (GST-hSYK fusion protein) (Homo sapiens, UniProt P43405); assay: biochemical; conditions: rhSYK Activity, Table 61B
compounds and their reported IC50

stdin: // lookup IC50 for Cc1cc(Nc2nccc(C(F)(F)F)n2)cc(-c2cnc(C3(NS(C)(=O)=O)CCC3)s2)c1 [Example 61B-4]
stdout: < 100 nM

stdin: Another compound to check: COc1nc(Nc2cc(C)cc(-c3cnc(C4(N)COC4)s3)c2)ncc1Cl [Example 61B-10]
stdout: < 100 nM

stdin: Now consider Cc1cc(Nc2nccc(C(F)(F)F)n2)cc(-c2cnc(C3(NS(=O)(=O)C(F)(F)F)CCC3)s2)c1 [Example 61B-5] and answer again.
stdout: < 100 nM

stdin: And then Cc1cc(Nc2nccc(C(F)(F)F)n2)cc(-c2cnc(C3(NS(=O)(=O)CC(F)(F)F)COC3)s2)c1 [Example 61B-7] , what is it?
stdout: < 100 nM

stdin: Note, next up: Cc1cc(Nc2nccc(C(F)(F)F)n2)cc(-c2cnc(C3(N)CCC3)s2)c1 [Example 61B-1]
stdout: < 100 nM

stdin: Can you check Cc1cc(Nc2nccc(C(F)(F)F)n2)cc(-c2cnc(C3(NS(=O)(=O)CC(F)(F)F)CCC3)s2)c1 [Example 61B-2] next?
stdout: < 100 nM

====

target: recombinant human SYK (GST-hSYK fusion protein) (Homo sapiens, UniProt P43405); assay: biochemical; settings: Syk IC50, HTRF, recombinant human GST-SYK
measured-metric: IC50 (nM)

Some entries whose results are on file:
compound	IC50 [nM]
Cc1cc(Nc2nccc(C(F)(F)F)n2)cc(-c2cnc(C3CCC4(CC3)OCCO4)s2)c1	297
Cc1cc(Nc2nccc(C(F)(F)F)n2)cc(-c2cnc(C3(O)CC4(CC(C(=O)O)C4)C3)s2)c1 (stereo not shown)	2

A: Cc1cc(Nc2nccc(C)n2)cc(-c2cnc([C@@]3(O)CC[C@H](C(=O)O)C(C)(C)C3)s2)c1
B: Cc1cc(Nc2nccc(C(F)(F)F)n2)cc(-c2cnc(C3(O)CCCN(CC(=O)O)CC3)s2)c1 (stereo not shown)
stdin: Kindly identify the item with the lower IC50 figure among these two: A and B Selection: enter the item's label.
stdout: A
(A: 1 nM, B: 216 nM)
